# TGT: wild type c-kit (Homo sapiens (Human), UniProt P10721)
# Sequence (P10721 26-976): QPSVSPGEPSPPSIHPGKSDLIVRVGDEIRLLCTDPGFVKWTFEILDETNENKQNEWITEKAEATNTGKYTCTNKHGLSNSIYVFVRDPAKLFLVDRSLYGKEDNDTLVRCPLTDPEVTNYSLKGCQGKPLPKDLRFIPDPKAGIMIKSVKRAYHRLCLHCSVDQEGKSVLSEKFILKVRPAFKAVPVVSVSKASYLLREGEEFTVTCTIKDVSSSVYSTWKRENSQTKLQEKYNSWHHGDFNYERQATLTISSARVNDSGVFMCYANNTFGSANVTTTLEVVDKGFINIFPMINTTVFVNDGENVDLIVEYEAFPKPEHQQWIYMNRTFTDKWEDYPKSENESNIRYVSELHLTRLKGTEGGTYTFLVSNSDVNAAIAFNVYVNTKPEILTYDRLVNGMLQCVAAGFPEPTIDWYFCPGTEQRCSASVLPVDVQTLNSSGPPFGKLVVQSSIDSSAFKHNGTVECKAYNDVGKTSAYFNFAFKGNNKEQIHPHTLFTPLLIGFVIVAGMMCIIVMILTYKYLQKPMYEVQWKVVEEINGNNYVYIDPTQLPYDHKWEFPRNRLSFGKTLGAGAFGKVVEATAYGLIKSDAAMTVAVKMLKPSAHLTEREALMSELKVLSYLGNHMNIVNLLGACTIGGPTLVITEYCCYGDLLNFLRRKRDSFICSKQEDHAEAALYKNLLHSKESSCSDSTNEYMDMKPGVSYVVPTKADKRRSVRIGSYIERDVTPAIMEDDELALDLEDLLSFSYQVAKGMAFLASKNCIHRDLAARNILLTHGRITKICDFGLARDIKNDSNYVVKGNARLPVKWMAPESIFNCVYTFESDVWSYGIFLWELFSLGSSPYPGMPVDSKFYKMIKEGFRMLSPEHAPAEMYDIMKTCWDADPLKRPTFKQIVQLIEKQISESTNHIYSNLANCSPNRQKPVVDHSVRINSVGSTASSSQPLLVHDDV
# METHOD DESCRIPTION: PathScan phospho c-kit (Tyr719) sandwich ELISA in SCF-stimulated M-07e cells (pKIT assay)
# Type: cell-based
# ASSAY CONDITIONS: ELISA assay (values not marked *)
ASSAY METRIC: IC50 (nM)

Below: 5 compounds and their reported IC50.
Cc1ccc(-c2nnn(C3CC(F)(F)C3)n2)cc1NC(=O)c1cnn2ccc(N3CC(CO)C3)cc12: 2.4
COC[C@@H](O)Cn1nc(C)c(-c2ccn3ncc(C(=O)Nc4cc(-c5nnn(C)n5)ccc4C)c3c2)c1C: 0.8
Cc1nnn(-c2ccc(C)c(NC(=O)c3cnn4ccc(-c5c(C)nn(CC(C)(C)O)c5C)cc34)c2)n1: 0.4
[2H]C([2H])([2H])OCCNc1ccn2ncc(C(=O)Nc3cc(-c4nnn(C5CN(C(=O)OC)C5)n4)ccc3C)c2c1: 33.8
COCCOC[C@H](O)Cn1cc(-c2ccn3ncc(C(=O)Nc4cc(-c5nnn(C6CC6)n5)c(F)cc4Cl)c3c2)c(C)n1: 0.3

[a] COC(=O)N1CC(n2nnc(-c3cc(NC(=O)c4cnn5cc(OCCO)ccc45)c(C)cc3F)n2)C1
[b] Cc1nnn(-c2ccc(C)c(NC(=O)c3cnn4ccc(-c5cnn(CC(C)(C)O)c5)cc34)c2)n1
[c] Cc1cc(Cl)c(-c2nnn(C3CC3)n2)cc1NC(=O)c1cnn2ccc(-c3cnn(CC(C)(C)O)c3)cc12
[d] Cc1ccc(-c2nnn(C)n2)cc1NC(=O)c1cnn2ccc(-c3cnn(C[C@@H](C)O)c3)cc12 (mixture of isomers)
Data request: Order field: IC50 | Direction: descending (largest first) List labels; respect the requested ordering.
Data returned: a, b, d, c
(a: 23.4 nM, b: 6.9 nM, d: 1.5 nM, c: 0.5 nM)

[P] COC(=O)N1CC(n2nnc(-c3ccc(C)c(NC(=O)c4cnn5ccc(N[C@@H]6CCOC6)cc45)c3)n2)C1
[Q] Cc1ccc(-c2nnn(C3CC(F)(F)C3)n2)cc1NC(=O)c1cnn2ccc(N3CC[C@H](O)C3)cc12
Data request: Kindly compare P with Q and tell me which has the lower IC50 figure. State the label of the item chosen.
Data returned: Q
(Q: 6.1 nM, P: 29.6 nM)

[a] COC(=O)N1CC(n2nnc(-c3ccc(C)c(NC(=O)c4cnn5ccc(NCCOC(C)(C)C)cc45)c3)n2)C1
[b] CC(C)(O)Cn1cc(-c2ccn3ncc(C(=O)Nc4cc(-c5nnn(C6CC6)n5)ccc4Cl)c3c2)cn1
Data request: Return label of the item with the larger IC50. Candidates: a , b . Kindly give the label for the entry you pick.
Data returned: a
(a: 29 nM, b: 0.5 nM)
